The reader will find reported Determined Pe values listed item by item below.
Test: PAMPA-BBB assay
Conditions: in-house conditions; 17 h, 200 μM, 25 °C, triplicate

* CNCc1cccc(-c2cc(F)cc(CCc3cc(C)cc(N)n3)c2)c1 [Compound 18] | 17.41 10^−6 cm s^−1
* CNCCCN1c2ccccc2CCc2ccccc21 [Desipramine] | 20.52 ± 0.64 10^−6 cm s^−1
* CNCc1cccc(-c2cncc(CCc3cc(C)cc(N)n3)c2)c1 [Compound 16] | 5.56 10^−6 cm s^−1

# input Return Determined Pe for the following compound: Cn1c(=O)c2[nH]cnc2n(C)c1=O.O [Theophylline]
# output 0.15 ± 0.04 10^−6 cm s^−1
